Every entry's value here was drawn from the array DNA melting data of Ke et al. (doi:10.1101/2024.01.08.574731).

# Procedure Summary: folding enthalpy; higher = less favourable; fluorescence melt of hairpins on a sequencing array, two-state fit
# Measurement Conditions: sodium 0.088 M
Quantity: folding enthalpy (kcal/mol)
# number only, unit kcal/mol dropped from output

Consider the sequence GATCTCGACTGAGATC ((((((....)))))) and give its measured folding enthalpy.
-45.9

Consider the sequence GGCGATGCGAAAGCAGCC (((..(((....)))))) and give its measured folding enthalpy.
-19.5

Consider the sequence GGTGAGCGAAAGCTACC (((.(((....)))))) and give its measured folding enthalpy.
-19.2

Consider the sequence GATCCAGCATGGATC ((((((...)))))) and give its measured folding enthalpy.
-45.4

Consider the sequence GACTGGGGAAACCCGGTC (((.(((....))).))) and give its measured folding enthalpy.
-41.7

Consider the sequence GTTTGTCGAAAGACCAAC (((.(((....))).))) and give its measured folding enthalpy.
-26.1

====

# Procedure Summary: melting temperature; fluorescence melt of hairpins on a sequencing array, two-state fit, raised by 9.35 °C to match UV melts
# Measurement Conditions: sodium 0.088 M
Binned Tm; ranges: band A: < 40 °C; band B: ≥ 40 °C and < 50 °C; band C: ≥ 50 °C

Looking at GCGGTCGGAAACGACCAC (.(((((....))))).) , which class would you pick?
band B

Looking at GATCGTCGCAACGATC ((((((....)))))) , which class would you pick?
band C

Looking at GGTGTAGGAAACCACACC (((((.(....).))))) , which class would you pick?
band B

Looking at GACCAGACGAAAGTCGTC (((..(((....)))))) , which class would you pick?
band A

Looking at GCTGGTGGAAACATCGGC ((.(.((....)).).)) , which class would you pick?
band B

Looking at GCCCACCGAAAGGTCGGC (((.(((....))).))) , which class would you pick?
band C

Looking at TACCTGAAAAGGTA (((((....))))) , which class would you pick?
band B

Looking at GGTGCAGGAAACTACACC ((((.((....)).)))) , which class would you pick?
band B

Looking at GGAAAATCGAAAGATTCC (((..(((....)))))) , which class would you pick?
band A

Looking at GGCGTACGAAAGTAGGCC (((.(((....))).))) , which class would you pick?
band C

Looking at GTTATCGGAAACGATAAC (((((((....))))))) , which class would you pick?
band C

====

# Procedure Summary: melting temperature; fluorescence melt of hairpins on a sequencing array, two-state fit, raised by 9.35 °C to match UV melts
# Measurement Conditions: sodium 0.088 M
Checkbox rule: Tm lower than 40 °C = yes; Tm not lower than 40 °C = no.

Item GCTGCGCGAAAGCTCCGC ((.(.((....)).).)) : Tm beneath 40 °C, strictly?
yes

Item GATCCCGAAAGGGGCATC ((((((....)))..))) : Tm beneath 40 °C, strictly?
yes

Item GAGGTCGGAAACGATCTC (((.(((....))).))) : Tm beneath 40 °C, strictly?
no

Item GATCACTGCAGTGATC ((((((....)))))) : Tm beneath 40 °C, strictly?
no

Item GGTAACGAAAGTTTTACC ((((((....)))..))) : Tm beneath 40 °C, strictly?
yes

Item GCACATCGAAAGATTGC (((.(((....)))))) : Tm beneath 40 °C, strictly?
no

Item GATCCGGTCTCGGATC ((((((....)))))) : Tm beneath 40 °C, strictly?
no

Item GTCGGCCCGAAAGGGGAC (((..(((....)))))) : Tm beneath 40 °C, strictly?
no

Item GGGAGAGGAAACTCTCTC (.(((((....))))).) : Tm beneath 40 °C, strictly?
no

Item GGGCGTGGAAACACGCTC (.(((((....))))).) : Tm beneath 40 °C, strictly?
no

Item GAAAGACGAAAGTCCTTC (((.(((....))).))) : Tm beneath 40 °C, strictly?
yes

Item GGTAGCGAAAGCTACACC ((((((....)))..))) : Tm beneath 40 °C, strictly?
no
